Value source: patent US20230227409A1

- assayedSystem: Human MAT2A (Homo sapiens, UniProt P31153)
- Construct: Human MAT2A: Cepter, amino acids 1-395; purchased Cepter clone ID 329, lot 00023-123; clone ID 334, lot 00023-148
- Sequence (P31153 whole entry, the tested form may be a part): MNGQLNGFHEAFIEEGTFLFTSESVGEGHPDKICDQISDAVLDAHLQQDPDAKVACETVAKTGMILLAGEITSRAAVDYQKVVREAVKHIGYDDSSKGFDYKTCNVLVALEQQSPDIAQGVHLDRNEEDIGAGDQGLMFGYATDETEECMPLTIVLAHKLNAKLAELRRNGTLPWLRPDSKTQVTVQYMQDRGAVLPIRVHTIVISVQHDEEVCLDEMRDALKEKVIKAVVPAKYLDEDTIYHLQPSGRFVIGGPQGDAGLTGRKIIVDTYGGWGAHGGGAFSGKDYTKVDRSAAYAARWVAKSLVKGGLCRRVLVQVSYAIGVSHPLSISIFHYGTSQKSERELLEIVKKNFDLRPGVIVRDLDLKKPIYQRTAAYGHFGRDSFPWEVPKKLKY
- methodNotes: Phosphate Sensor Fluorescence Assay (Biologic Example B)
- Assay type: biochemical
- runConditions: MAT2A enzyme inhibition, Biological Example B; 5.8 nM MAT2A, 500 uM L-methionine, 500 uM ATP; class symbols
pIC50: −log10 of the molar value.
Some molecules, each annotated with its measured pIC50.

| molecule | valueMeasured |
| --- | --- |
| Cc1ncccc1-c1c(O)c(=O)[nH]c2ccc(Br)cc12 [Compound 1.025] | 6.70 to 8.00 |

Attention now turns to another entry.
input: State the recorded pIC50 for this entry: Cc1ncccc1-c1c(O)c(=O)[nH]c2ccc(Cl)cc12 [Compound 1.026]
output: 6.70 to 8.00

---

- assayedSystem: Human MAT2A (Homo sapiens)
- Construct: Human MAT2A: Cepter, amino acids 1-395; purchased Cepter clone ID 329, lot 00023-123; clone ID 334, lot 00023-148
- methodNotes: Phosphate Sensor Fluorescence Assay (Biologic Example A)
- Format: biochemical
- runConditions: MAT2A enzyme inhibition, Biological Example A; 500 uM L-methionine, 500 uM ATP; class symbols
pIC50: −log10 of the molar value.
Recorded measurements of pIC50, one per entry

Here's what some known entries look like.
| compoundString | valueMeasured |
| --- | --- |
| O=c1[nH]c2ccc(Cl)cc2c(-c2ccccc2)c1S(=O)(=O)c1ccccc1 | 5.00 to 6.00 |
| CNS(=O)(=O)c1c(-c2ccccc2)c2cc(Cl)ccc2[nH]c1=O | 5.00 to 6.00 |
| Cc1ccccc1-c1c(O)c(=O)[nH]c2ccc(Cl)cc12 | 6.70 to 8.00 |

input: So what's the measured pIC50 for this one? "O=c1[nH]c2ccc(Cl)cc2c(-c2ccccc2)c1Sc1nc2ccccc2s1"
output: 5.00 to 6.00

input: Requested field: pIC50. Item: "O=c1[nH]c2ccc(Cl)cc2c(-c2ccccc2)c1S"
output: 6.70 to 8.00

---

- assayedSystem: Human MAT2A (Homo sapiens)
- Construct: Human MAT2A: Cepter, amino acids 1-395; purchased Cepter clone ID 329, lot 00023-123; clone ID 334, lot 00023-148
- methodNotes: Phosphate Sensor Fluorescence Assay (Biologic Example B)
- Format: biochemical
- runConditions: MAT2A enzyme inhibition, Biological Example B; 5.8 nM MAT2A, 500 uM L-methionine, 500 uM ATP; class symbols
readout: IC50

// below: answered compounds
| compoundString | valueMeasured |
| --- | --- |
| Cn1nccc1-c1c(O)c(=O)[nH]c2ccc(C(F)(F)F)cc12 | 0.01 to 0.2 µM |
| COc1cc(C(F)(F)F)cc2c(-c3ccccc3C)c(O)c(=O)[nH]c12 | 0.01 to 0.2 µM |

Next compound, please.
input: Param readout = IC50; param system = Human MAT2A (Homo sapiens); param query = "Cc1ncccc1-c1c(O)c(=O)[nH]c2ccc(C(F)(F)F)cc12" ; response: value
output: < 0.01 µM
